Molecular target: BZP Rat Brain Site
Experiment: NIMH-PDSP binding assay, BZP Rat Brain Site
Settings: read-out: Ki BZP Rat Brain Site
pKi: −log10 of the molar value.
Reported property: pKi

- COc1ccccc1N1CCN(CCCCn2ncc(=O)n(C)c2=O)CC1: < 5.00
